Listing of recorded viability at 50 µM by entry.
# run description: Cytotoxicity against human HL60 cells assessed as cell survival at 50 uM after 72 hrs by CCK8 assay
# Format: functional
# test context: HL-60, 72 h, read-out: Survival
measurement type: viability at 50 µM (%)

1. O=C(O[C@H]1[C@H](Oc2c(-c3ccc(O)cc3)oc3cc(O)cc(O)c3c2=O)O[C@H](CO)[C@@H](O)[C@@H]1O)c1cc(O)c(O)c(O)c1; 48.3
2. CCOC(=O)c1cc(O)c(O)c(O)c1 [ETHYLGALLATE]; 55.7
3. Oc1cc(O)c2c(c1)O[C@H](c1ccc(O)c(O)c1)[C@@H](O)C2; 47
4. C[C@@H]1O[C@@H](Oc2c(-c3ccc(O)c(O)c3)oc3cc(O)cc(O)c3c2=O)[C@H](O)[C@H](O)[C@H]1O; 46.8
5. O=C(OC[C@H]1O[C@@H](Oc2c(-c3ccc(O)cc3)oc3cc(O)cc(O)c3c2=O)[C@H](OC(=O)c2cc(O)c(O)c(O)c2)[C@@H](O)[C@@H]1O)c1cc(O)c(O)c(O)c1; 24.6
6. O=C(O)c1cc(O)c(O)c(O)c1; 4.3
7. Oc1cc(O)c2c(c1)O[C@H](c1ccc(O)c(O)c1)[C@@H](O)[C@@H]2c1c(O)cc(O)c2c1O[C@H](c1ccc(O)c(O)c1)[C@@H](O)C2; 58.9
8. C[C@@H]1O[C@@H](Oc2c(-c3ccc(O)cc3)oc3cc(O)cc(O)c3c2=O)[C@H](O)[C@H](O)[C@H]1O; 45.8
9. O=c1c(O)c(-c2ccc(O)c(O)c2)oc2cc(O)cc(O)c12; 29.7
